Cited source: ChEMBL document CHEMBL3244298

assay-protocol: Acute toxicity in ip dosed mouse measured for 24 hrs
Format: organism-based
assay-setup: in vivo
observed-property: LD50 at 24 h (mg/kg)
One number for each entry, in mg/kg.

Input line: # LD50 at 24 h lookup, item `Nc1ccc(S(=O)(=O)NC(=S)NC23CC4CC(CC(C4)C2)C3)cc1`
Output line: 775

###

assay-protocol: Acute toxicity in po dosed mouse measured for 24 hrs
Format: organism-based
assay-setup: in vivo
observed-property: LD50 at 24 h

Input line: Please report the recorded LD50 at 24 h for `Nc1ccc(S(=O)(=O)NC(=S)NC23CC4CC(CC(C4)C2)C3)cc1` .
Output line: > 1000 mg/kg
